test system: T1, natriuretic peptide receptor-B (human)
T1 chain: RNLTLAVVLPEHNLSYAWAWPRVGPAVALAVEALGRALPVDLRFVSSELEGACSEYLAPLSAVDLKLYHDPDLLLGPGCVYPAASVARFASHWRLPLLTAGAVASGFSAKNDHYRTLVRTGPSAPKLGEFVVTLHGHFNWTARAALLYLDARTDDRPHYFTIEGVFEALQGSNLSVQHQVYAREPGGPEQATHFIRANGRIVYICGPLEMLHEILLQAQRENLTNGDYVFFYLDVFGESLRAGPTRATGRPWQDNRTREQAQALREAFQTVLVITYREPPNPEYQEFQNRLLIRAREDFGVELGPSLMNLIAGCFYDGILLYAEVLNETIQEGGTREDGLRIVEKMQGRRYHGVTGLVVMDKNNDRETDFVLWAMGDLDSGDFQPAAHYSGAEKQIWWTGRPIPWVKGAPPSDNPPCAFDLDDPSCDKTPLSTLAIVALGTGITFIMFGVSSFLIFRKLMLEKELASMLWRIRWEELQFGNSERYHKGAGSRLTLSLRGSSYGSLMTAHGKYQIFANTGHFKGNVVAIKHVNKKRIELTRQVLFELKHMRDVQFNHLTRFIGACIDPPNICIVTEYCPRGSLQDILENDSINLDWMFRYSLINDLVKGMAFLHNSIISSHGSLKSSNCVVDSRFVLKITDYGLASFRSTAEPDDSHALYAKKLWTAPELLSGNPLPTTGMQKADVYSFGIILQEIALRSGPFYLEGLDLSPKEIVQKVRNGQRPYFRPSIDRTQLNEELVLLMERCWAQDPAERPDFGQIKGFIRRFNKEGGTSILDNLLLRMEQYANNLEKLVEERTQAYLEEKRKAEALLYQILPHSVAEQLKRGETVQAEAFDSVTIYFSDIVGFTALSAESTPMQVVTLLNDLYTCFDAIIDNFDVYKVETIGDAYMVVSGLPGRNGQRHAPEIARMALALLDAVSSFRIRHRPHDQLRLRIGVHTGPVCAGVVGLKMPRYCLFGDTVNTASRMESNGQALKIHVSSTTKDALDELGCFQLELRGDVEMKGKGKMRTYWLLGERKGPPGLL
experiment description: cell-based or functional assay
Numbered stars: 1 amine (or outer) side, 2 acyl side, 3 side chain; on linkers, the order of the positions; unused ones are H or OH. Square brackets hold non-standard residues; d marks the D form. Ends that are not written are not given here. * marks the point of attachment. Paa = piperazin-1-yl-acetic acid, O=C(CN1CCN([*:1])CC1)[*:2]; Sni = (S)-nipecotic acid, O=C([C@H]1CCCN([*:1])C1)[*:2]; Hyp = O=C(O)[C@@H]1C[C@@H](O)CN1; 2Thi = N[C@@H](Cc1cccs1)C(=O)O; NMeL = CN[C@@H](CC(C)C)C(=O)O; Octanoyl = CCCCCCCC(=O)*; Hexanoyl = CCCCCC(=O)*; leu = not defined here; Occ = octanoic acid

# binder, EC50 group, cGMP in GTM-3 cells
rows = [
    ("Hexanoyl-[dA][dA]F[Paa]KLDRI-NH2 [JAL-0731]", "≤ 15 µM"),
    ("[Occ]A[2Thi]GLPLDRI-NH2 (not fully specified (residue 2); printed as Occ-ala-Thi-Gly-Leu-Pro-Leu-Asp-Arg-Ile-NH2) [JAL-1000]", "≤ 15 µM"),
    ("Octanoyl-AFSL[Hyp][NMeL]DRI-NH2 (not fully specified (some residues); printed as Occ-ala-Phe-ser-Leu-Hyp-Nml-Asp-Arg-Ile-NH2) [JAL-1252]", "≤ 1 µM"),
    ("Octanoyl-[Sni]Y[leu]L[Hyp][NMeL]DRI-NH2 (reading uncertain; also: printed as Occ-Sni-Tyr-leu-Leu-Hyp-Nml-Asp-Arg-Ile-NH2) [JAL-1489]", "≤ 15 µM"),
]
